Documented growth across a set of molecules
Tested on: KM12 colon
Assay: NCI-60 one-dose screen, 48 h (100 = growth as untreated, 0 = no growth, -100 = all killed)
Details: 10 µM unless noted
About 83,000 compounds went through this panel and 20% of them were active in at least one assay; those are over-represented in the sample as a whole.
Your answer should be a plain number; it is taken to be in %.

Check out these entries, answers already filled in.
Nc1nc(N)c2c(n1)NC(c1cccc(Nc3ccnc4cc(C(F)(F)F)ccc34)c1)CC(c1ccc3c(c1)OCO3)=N2 (configuration not stated) | 38.6
O=C(Nc1ncc(Cc2ccccc2)s1)c1sc2ccccc2c1Cl | 12.5
O=C(NNc1nc2cc(F)ccc2n2c(CN3CCOCC3)ccc12)c1ccccc1 | 12.2
COc1ccc(/C=C2\CN(C(=O)C(Cl)Cl)C/C(=C\c3ccc(OC)c(OC)c3)C2=O)cc1OC | -49.7
C=C1CC[C@@H]2C(C)(C)[C@H](O)CC[C@@]2(C)[C@@H]1COc1ccc2ccc(=O)oc2c1 | 28.2

Entry O=C1Nc2ccccc2/C1=N/N1C(=O)CN(CCCl)C1=O , growth reported as 113

Input COc1ccc(-c2cc(-c3cc(OC)ccc3OC)nc(SCC(C)=O)c2C#N)cc1 . Output growth: 60.2

Just so you know, measured growth for COC12C=C/C(=C(/C(=O)OCc3cncnc3)C(=O)CCCCCCCCC3(OC)C=C/C(=C(/C(=O)OCc4cncnc4)C(=O)CCCCCCCC1)O3)O2 came out at -89.2

The molecule listed as O=C(/C=C/c1ccccc1)c1ccc(-n2cc(CN3CCN(c4cc5c(cc4F)c(=O)c(C(=O)O)cn5C4CC4)CC3)nn2)cc1 shows growth equal to 73.7

O=C(NCCN1CCOCC1)OCc1ccc2c(Cl)cc(Cl)c(O)c2n1 yielded growth of 53.2

Lookup result for COC1C(O)CC(OC2CC(OC3CC(O[C@@H]4C(=O)c5c(cc6cc(OC7CC(OC8CC(O)C(O)C(C)O8)C(O)C(C)O7)c(C)c(O)c6c5O)CC4[C@H](OC)C(=O)C(C)=O)OC(C)C3O)OC(C)C2O)OC1C (some centres not stated) ; measured growth: 13

* * *

Tested on: 786-0 renal
Test: NCI-60 one-dose screen, 48 h (100 = growth as untreated, 0 = no growth, -100 = all killed)
Conditions: 10 µM unless noted
Method: Cells are grown in 96 well plates and exposed to the test compound for 48 hours. Compounds are tested at a single concentration, which is 10^-5 M for most compounds. The reported endpoint is percent growth (GI% or GIPRCNT), where numbers from 0 - 100% represent growth inhibition, and numbers from -100% - 0 represent cell death. For example, a value of 40 represents 60% growth inhibition. A value of 0 means no net growth occurred over the course of the experiment. […]
Compounds without any hit were thinned out: in the full panel of roughly 83,000, 20% have a hit. Activity calls are given as the source filed them. The calls were made as follows: active = growth percent below 10; inactive = the rest.
attribute_measured: growth

COC(=O)[C@]1(C)CCC[C@]2(C)[C@H]3C[C@@H]4[C@H]5[C@@H]6CC/C(=N\OCC/C(N)=N/O)[C@H]5[C@@]3(CC[C@H]21)CC4(C(C)C)O6 | 86.2% (inactive)

Per the record, CC(O)Cc1c[nH]c(=O)[nH]c1=O (centres undefined) has growth of 109% (inactive)

// field: growth; key: COc1ccc(Oc2ccc(/C=C/C(=O)c3ccc(OC)c(OC)c3)cc2)cc1 ; value = 103% (inactive)

Per the records, this compound ( COc1ccc(/C=C2\CN(C(=O)C(Cl)Cl)C/C(=C\c3ccc(OC)c(OC)c3)C2=O)cc1OC ) has growth equal to -94.9% (active)

The measured growth associated with CC1(C)N=C(N)N=C(N)N1c1cc(Cl)ccc1Cl reads 110% (inactive)

Consider Cn1cc(-c2nc3c(F)cc4[nH]ncc4c3c3c2CCCC3)c(C(F)(F)F)n1 . Its measured growth is 42.7% (inactive)

// growth lookup, compound = CC(C)(C)CC(C)(C)Nc1c(-c2c(O)c3ccccc3oc2=O)nc2sc3ccccc3n12 , result: 35.6% (inactive)

Record Cc1cc(Cl)nc(N2CCN(CCNc3ccnc4cc(Cl)ccc34)CC2)n1 . Reported growth: 49.1% (inactive)

Quick note, growth for Nc1ncnc2c1N=C(c1ccc(F)cc1)CC(c1cccc(Nc3ccnc4cc(Cl)ccc34)c1)N2 (centres undefined) landed at 61.9% (inactive)
